test system: HEP 3B cells; assay: MTT cell proliferation assay, HEP 3B cells; type: cell-based; conditions: Hep3B; human hepatocellular carcinoma cells
observable: IC50

# input compound: Nc1ccc(/C=C/C(=O)NCCOc2ccc(-c3ccc(C(=O)N4CC(F)(F)C4)cc3)cc2Cl)cn1 ; wanted: its IC50 < 100 nM

---

system: 3T3 cells; assay: MTT cell proliferation assay, 3T3 cells; format: cell-based; conditions: Mus musculus, NIH3T3; 3T3 fibroblast cells; incubation approximately 64-72 hours
For each of the compounds below, state its IC50.

# input compound: Nc1ccc(/C=C/C(=O)NCCOc2ccc(-c3ccc(C(=O)N4CCOCC4)cc3)cc2C(F)(F)F)cn1 ; wanted: its IC50 0.1 to 5 µM

# input compound: CC(=O)c1ccc(-c2cnc(OCCNC(=O)/C=C/c3ccc(N)nc3)c(Cl)c2)s1 ; wanted: its IC50 > 10 µM

# input compound: CC(=O)c1ccc(-c2ccc(OCCNC(=O)/C=C/c3ccc(N)nc3)c(Cl)n2)s1 ; wanted: its IC50 > 10 µM

# input compound: Nc1ccc(/C=C/C(=O)NCCCOc2cc(Cl)cc(-c3ccc(C(=O)N4CCOCC4)cc3)c2)cn1 ; wanted: its IC50 0.1 to 5 µM

# input compound: CC(=O)c1ccc(-c2ccc(OCCNC(=O)/C=C/c3ccc(N)nc3)c(Cl)c2)s1 ; wanted: its IC50 > 10 µM

# input compound: CC(=O)c1ccc(-c2ccc(OCCNC(=O)/C=C\c3cccnc3)c(Cl)c2)s1 ; wanted: its IC50 > 10 µM

# input compound: Nc1ccc(CNC(=O)/C=C\COc2ccc(-c3ccc(C(=O)N4CCC(F)(F)CC4)cn3)cc2C(F)(F)F)cn1 ; wanted: its IC50 > 10 µM

# input compound: [2H]C([2H])(CNC(=O)/C=C/c1ccc(N)nc1)Oc1ccc(F)c(-c2ccc(C(=O)N3CCOCC3)cc2)c1 ; wanted: its IC50 > 10 µM

# input compound: CC(C)(O)c1ccc(-c2ccc(OCCNC(=O)/C=C/c3ccc(N)nc3)c(Cl)c2)s1 ; wanted: its IC50 > 10 µM

# input compound: CC(C)(CNC(=O)/C=C/c1ccc(N)nc1)COc1ccc(-c2ccc(C(=O)N3CCOCC3)cc2)cc1Cl ; wanted: its IC50 0.1 to 5 µM

# input compound: C=C(C)c1ccc(-c2ccc(OCCNC(=O)/C=C/c3cccnc3)c(Cl)c2)s1 ; wanted: its IC50 5 to 10 µM

# input compound: CC(=O)c1ccc(-c2ccc(OCCNC(=O)/C=C/c3cccnc3)c(Cl)c2)s1 ; wanted: its IC50 > 10 µM

# input compound: Nc1ccc(/C=C/C(=O)NCCOc2ccc(-c3cccc(C(=O)N4CCOCC4)c3)cc2Cl)cn1 ; wanted: its IC50 > 10 µM

# input compound: CC(=O)c1ccc(-c2ccc(OC(C)(C)CNC(=O)/C=C/c3cccnc3)c(Cl)c2)s1 ; wanted: its IC50 > 10 µM

# input compound: CN(C)C(=O)c1ccc(-c2ccc(OCCNC(=O)/C=C/c3ccc(N)nc3)c(Cl)c2)cc1 ; wanted: its IC50 > 10 µM

# input compound: Nc1ccc(/C=C/C(=O)NCCOc2ccc(-c3cnc(C(=O)N4CCOCC4)nc3)cc2Cl)cn1 ; wanted: its IC50 > 10 µM

# input compound: CC(O)c1ccc(-c2ccc(OCCNC(=O)/C=C/c3cccnc3)c(Cl)c2)s1 (stereo not drawn) ; wanted: its IC50 0.1 to 5 µM

# input compound: CC(C)(CNC(=O)/C=C/c1ccc(N)nc1)Oc1ccc(F)c(-c2ccc(C(=O)N3CCOCC3)cc2)c1 ; wanted: its IC50 > 10 µM

# input compound: CC(=O)c1ccc(-c2ccc(OCCN(C)C(=O)/C=C/c3cccnc3)c(Cl)c2)s1 ; wanted: its IC50 0.1 to 5 µM

# input compound: CC(=O)c1ccc(-c2ccc(OCCNC(=O)/C=C/c3c(C)noc3C)c(Cl)c2)s1 ; wanted: its IC50 > 10 µM

# input compound: CC(CCOc1cc(-c2ccc(C(=O)N3CCC(F)(F)CC3)cn2)cc(C(F)(F)F)c1)NC(=O)/C=C/c1ccc(N)nc1 (stereo not drawn) ; wanted: its IC50 > 10 µM

# input compound: Nc1ccc(/C=C/C(=O)NCCOc2cc(Cl)cc(-c3ccc(C(=O)N4CC(F)(F)C4)cc3)c2)cn1 ; wanted: its IC50 0.1 to 5 µM

# input compound: CC(=O)c1ccc(-c2ccc(NCCNC(=O)/C=C/c3cccnc3)c(Cl)c2)s1 ; wanted: its IC50 > 10 µM

# input compound: CC(=O)c1ccc(-c2ccc(Cl)c(OCCNC(=O)/C=C/c3cccnc3)c2)s1 ; wanted: its IC50 > 10 µM

# input compound: [2H]C([2H])(CNC(=O)/C=C/c1ccc(N)nc1)Oc1ccc(-c2ccc(C(=O)N3CCOCC3)cc2)cc1Cl ; wanted: its IC50 0.1 to 5 µM

# input compound: Nc1ccc(/C=C/C(=O)NCCOc2ccc(-c3ccc(C(=O)N4CC(F)(F)C4)cc3)cc2Cl)cn1 ; wanted: its IC50 0.1 to 5 µM

# input compound: CC(=O)c1ccc(-c2ccc(OCCNC(=O)/C=C/c3cccnc3Cl)c(Cl)c2)s1 ; wanted: its IC50 > 10 µM

# input compound: Nc1ccc(/C=C/C(=O)NCCOc2ccc(-c3ccc(C(=O)N4CCOCC4)cc3)cc2Cl)cn1 ; wanted: its IC50 0.1 to 5 µM

# input compound: CC1(C)COCCN1C(=O)c1ccc(-c2ccc(OCCNC(=O)/C=C/c3ccc(N)nc3)c(Cl)c2)cc1 ; wanted: its IC50 0.1 to 5 µM

# input compound: CC(=O)c1ccc(-c2ccc(OCCNC(=O)CCc3cccnc3)c(Cl)c2)s1 ; wanted: its IC50 > 10 µM

Taken from patent US9994558B2.
